Cited source for all entries: paper PMC10609152

Listed below: IC50 values for each entry.
- Tested on: BxPC-3 cells
- experiment: MTT assay, BxPC-3
- Type: cell-based
- condition_description: Homo sapiens, BXPC-3, 72 h, read-out: Mean IC50 ± SD
measured_quantity: IC50 (µM)

compound	experimental_value
COC(=O)C[C@H](N[C@H](c1ccccc1)c1c(O)ccc2ccccc12)C(=O)OC (mixture of isomers) [MMZ-147CE]	46.8
COC(=O)[C@H](Cc1ccccc1)N[C@H](c1ccccc1)c1c(O)ccc2ccccc12 (mixture of isomers) [MMZ-45B]	30.1

====

- System: BxPC-3 cells
- experiment: MTT assay, BxPC-3
- Format: cell-based
- condition_description: Homo sapiens; BxPC-3, 24-h MTT, independent experiment 2; read-out: IC50(2)
- Protocol: The MTT assay, also known as the 3-(4,5-dimethylthiazol-2-yl)-2,5-diphenyltetrazolium bromide assay, is a colorimetric assay used in biological and biomedical research to determine cell viability and proliferation. […] BxPC-3, HT-29, and WI-38 cells were seeded on 96-well plates at a density of approximately 8–10 × 10^3 cells per 100 µL medium/well. […] Afterward, a spectrophotometer (microplate reader Power Wave XS BioTek Instruments, Inc., Winooski, VT, USA) reading at 570 nm was conducted. […]

compound	target_system	IC50
COC(=O)C[C@H](N[C@@H](c1ccccc1)c1c(O)ccc2ccccc12)C(=O)OC (mixture of isomers) [MMZ-147B]	BxPC-3 cells	59.7 µM
O=c1[nH]cc(F)c(=O)[nH]1 [5-Fluorouracil, reference compound]	BxPC-3 cells	28.6 µM
COC(=O)[C@H](CC(C)C)N[C@@H](c1ccccc1)c1c(O)ccc2ccccc12 (mixture of isomers) [MMZ-167C]	BxPC-3 cells	61 µM
COC(=O)[C@H](Cc1ccccc1)N[C@@H](c1ccccc1)c1c(O)ccc2ccccc12 (mixture of isomers) [MMZ-45AA]	BxPC-3 cells	38 µM
COC(=O)[C@@H](N[C@@H](c1ccccc1)c1c(O)ccc2ccccc12)C(C)C (mixture of isomers) [MMZ-33D]	BxPC-3 cells	50.8 µM
COC(=O)[C@@H](N[C@@H](c1ccc(Cl)cc1)c1c(O)ccc2ccccc12)C(C)C (mixture of isomers) [MMZ-39AA]	BxPC-3 cells	60.3 µM
COC(=O)[C@@H]1CCCN1[C@@H](c1ccccc1)c1c(O)ccc2ccccc12 (mixture of isomers) [MMZ-140C]	BxPC-3 cells	36.8 µM
